- Tested on: PHKG2
- protocol conditions: concentration: 1 μM, replicates: in singlicate; n = 1;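 also: KINOMEscan kinase panel screen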
Reported %Inh by item:
Give the quantity in %, number only.

> print(dat)
                                   molecule  target.entity  metric.name  observed
1  Cc1cccc(-c2nc(-c3ccc(S(C)(=O)=O)cc3)sc2-c2ccncc2)c1          PHKG2         %Inh         0
2  N#Cc1ccc(-c2cc(-c3c[nH]nc3-c3ccccn3)ccn2)cc1 [GW693028]          PHKG2         %Inh         0
3  c1ccc(-c2cc(-c3c[nH]nc3-c3ccccn3)ccn2)cc1 [GW576604]          PHKG2         %Inh         0
4  Cc1cn2c(=O)cc(N3CCOCC3)nc2n1Cc1cccc(Cl)c1Cl [GSK2334006]          PHKG2         %Inh        14
5  CN1c2ccc(NCc3ccc(F)cc3)cc2-c2c(cnn2C)S1(=O)=O          PHKG2         %Inh         0
6  O=C(Nc1cccc(-c2nn3ncccc3c2-c2ccnc(Nc3cccc(C(F)(F)F)c3)n2)c1)c1c(F)cccc1F [GSK299495]          PHKG2         %Inh         0
7  COCCNC(=O)c1ccc(-c2cc(C(=O)NC3CC3)cc(F)c2C)cc1 [GW868318]          PHKG2         %Inh         0
8  Cc1ccc(NC(=O)c2ccnc(N3CCN(C)CC3)c2)cc1-c1ccc(C(=O)NCC2CC2)cc1 [GW775604]          PHKG2         %Inh         0

The record that follows has no %Inh shown yet.
Dear colleague, I am looking for the recorded %Inh of the following molecule: COc1cc2c(cc1OC[C@@H](O)CO)ncc1c3ccc(C#N)cc3[nH]c21
99.2

----------
- Test system: MST1R
- protocol conditions: concentration: 1 μM, replicates: in singlicate; n = 1
Reported %Inh by item:
Give the quantity in %, number only.

> print(dat)
                                   molecule  observed
1  O=C(NCCNc1ccnc(Nc2ccc(F)cc2)n1)c1cc2ccccc2s1 [GSK1379874]        30

Dear colleague, I am looking for the recorded %Inh of the following molecule: CN(C1=C(c2ccccc2)C(=O)NC1=O)c1ccccc1 [SB-334860]
12

Dear colleague, I am looking for the recorded %Inh of the following molecule: NS(=O)(=O)c1cccc(-c2ccc3ncc(N4CCOCC4)nc3c2)c1 [GSK1535721]
26

Dear colleague, I am looking for the recorded %Inh of the following molecule: CCc1nc(-c2cccc(C)c2)c(-c2ccnc(NCc3ccccc3)c2)s1
8

Dear colleague, I am looking for the recorded %Inh of the following molecule: Cc1ccc(C(=O)NCC(N)=O)cc1-n1c(C)cc(OCc2ccc(F)cc2F)c(Br)c1=O
29

Dear colleague, I am looking for the recorded %Inh of the following molecule: COc1cc2ncn(-c3cc(OCc4sccc4Cl)c(C(N)=O)s3)c2cc1OC [GSK448459]
38

Dear colleague, I am looking for the recorded %Inh of the following molecule: COc1cc(Nc2nccc(N3CCC(NC(=O)c4cccc(NC(C)=O)c4)C3)n2)cc(OC)c1OC (stereo not drawn) [GSK1379754]
20

Dear colleague, I am looking for the recorded %Inh of the following molecule: COc1cc2c(cc1OCCN1CCN(C)CC1)ncc1c3ccc(C#N)cc3[nH]c21
7

Dear colleague, I am looking for the recorded %Inh of the following molecule: Nc1nccc(-c2c(-c3ccc(F)cc3)ncn2C2CCN(CC(F)(F)F)CC2)n1 [SB-236560]
17

----------
- Test system: ABL1-phosphorylated
- protocol conditions: concentration: 1 μM, replicates: in singlicate; n = 1
Reported %Inh by item:
Don't forget the unit after the number, please.

Field: example entries. Status: answers known.
> print(dat)
                                   compound        target.entity  observed
1                CCCCCc1nc2c(N)ncnc2n1CCCCC  ABL1-phosphorylated       30%
2  O=C(Nc1cccc(-c2nn3ncccc3c2-c2ccnc(Nc3cccc(C(F)(F)F)c3)n2)c1)c1c(F)cccc1F  ABL1-phosphorylated        9%
3  Cc1nnc(-c2ccc3occ(-c4ccc(C(C)O)cc4)c3c2)o1 (stereo not shown)  ABL1-phosphorylated       36%
4  COc1ccc(S(=O)(=O)NC2CCN(c3cc(C)nc(Nc4cccc(C#N)c4)n3)CC2)cc1.O=C(O)C(F)(F)F  ABL1-phosphorylated        0%
5  Cc1cccc(-c2nc(-c3ccc(S(C)(=O)=O)cc3)sc2-c2ccncc2)c1  ABL1-phosphorylated        0%

The record that follows has no %Inh shown yet.
Dear colleague, I am looking for the recorded %Inh of the following compound: CCc1ccnc(/C=C/c2n[nH]c3cc(Sc4ccccc4C(=O)NC)ccc23)c1
89%

----------
- Tested on: PKAC-beta
- Construct: gene PRKACB
- protocol conditions: concentration: 1 μM, replicates: in singlicate; n = 1
metric name: %Inh (%)
Give the quantity in %, number only.

Field: example entries. Status: answers known.
> print(dat)
                                   molecule  metric.name  observed
1  Cc1nnc(-c2ccc3occ(-c4ccc(C(C)O)cc4)c3c2)o1 (stereo not drawn)         %Inh        17
2             CCn1cnc2c(N)ncnc21 [GW345098]         %Inh        14
3  Nc1nccc(-c2c(-c3ccc(F)cc3)ncn2C2CCN(CC(F)(F)F)CC2)n1 [SB-236560]         %Inh        11
4  O=C1NC(=O)C(N2CCc3ccccc32)=C1c1cccc(Cl)c1 [SB-408010]         %Inh        14
5  CCc1ccnc(/C=C/c2n[nH]c3cc(Sc4ccccc4C(=O)NC)ccc23)c1         %Inh         0

The record that follows has no %Inh shown yet.
Dear colleague, I am looking for the recorded %Inh of the following molecule: O=C(Nc1cccc(-c2nn3ncccc3c2-c2ccnc(Nc3cccc(C(F)(F)F)c3)n2)c1)c1c(F)cccc1F [GSK299495]
6

----------
- Tested on: SRPK2
- protocol conditions: concentration: 1 μM, replicates: in singlicate; n = 1
Reported %Inh by item:
Don't forget the unit after the number, please.

Field: example entries. Status: answers known.
> print(dat)
                                   compound  observed
1  NCC(NC(=O)c1cc(-c2cn[nH]c2)c(-c2ccnc3[nH]ccc23)s1)c1ccccc1.O=C(O)C(F)(F)F.O=C(O)C(F)(F)F (stereo not drawn)       22%
2  COC(=O)Nc1nc2cc(Oc3ccc(NC(=O)Nc4cc(F)ccc4F)cc3)ccc2[nH]1.Cl       29%
3  COCCNC(=O)c1ccc(-c2cc(C(=O)NC3CC3)cc(F)c2C)cc1        0%
4  O=C(c1ccc(-c2cc(-c3c[nH]nc3-c3ccccn3)ccn2)cc1)N1CCOCC1        0%
5  NS(=O)(=O)CCc1cccc(Nc2nccc(-c3c(-c4cccc(NC(=O)c5c(F)cccc5F)c4)nn4ccccc34)n2)c1        0%

Dear colleague, I am looking for the recorded %Inh of the following compound: O=C(NCCNc1ccnc(Nc2ccc(F)cc2)n1)c1cc2ccccc2s1
19%

Dear colleague, I am looking for the recorded %Inh of the following compound: Cc1nnc(-c2ccc3occ(-c4ccc(C(C)O)cc4)c3c2)o1 (stereo not drawn)
2%

Dear colleague, I am looking for the recorded %Inh of the following compound: COc1cc2ncn(-c3cc(OCc4sccc4Cl)c(C(N)=O)s3)c2cc1OC
0%

----------
Reported %Inh by item:
- System: CHEK2
- protocol conditions: concentration: 1 μM, replicates: in singlicate; n = 1
Give the quantity in %, number only.

Field: example entries. Status: answers known.
> print(dat)
                                    compound  unit.symbol  observed
 1  O=C1NC(=O)C(N2CCc3ccccc32)=C1c1cccc(Cl)c1 [SB-408010]            %         7
 2  Cl.Oc1cccc(Nc2ccnc3cc(-c4ccncc4)ccc23)c1 [GW494601]            %        42
 3  NCC(NC(=O)c1cc(-c2cn[nH]c2)c(-c2ccnc3[nH]ccc23)s1)c1ccccc1.O=C(O)C(F)(F)F.O=C(O)C(F)(F)F (stereo not drawn) [GSK1325775]            %        86
 4  [2H]C([2H])(c1cccc(C(F)(F)F)c1C)n1ccn2c(=O)nc(N3CCOCC3)cc12 [GSK2336394]            %         0
 5  COCCNC(=O)c1ccc(-c2cc(C(=O)NC3CC3)cc(F)c2C)cc1 [GW868318]            %        19
 6  Cc1cccc(-c2nc(Nc3ccc4ncsc4c3)c3ccccc3n2)n1 [GW867588]            %         7
 7  COc1ccc(CNC(=O)NC2CCN(c3ccnc(Nc4ccc(OC)cc4)n3)C2)cc1 (stereo not drawn) [GSK1379727]            %        27
 8  O=c1cc(N2CCOCC2)nc2n(Cc3cccc(F)c3)ccn12 [GSK2297430]            %         0
 9  COC(=O)Nc1nc2cc(Oc3ccc(NC(=O)Nc4cc(F)ccc4F)cc3)ccc2[nH]1.Cl [GW701424]            %        21
10  CN(C(=O)c1ccc(-c2cc(-c3c[nH]nc3-c3ccccn3)ccn2)cc1)C1CCOCC1 [GW810083]            %        12

Dear colleague, I am looking for the recorded %Inh of the following compound: CCn1cnc2c(N)ncnc21 [GW345098]
0

Dear colleague, I am looking for the recorded %Inh of the following compound: CC(C)Oc1ccc2c(-c3ccnc(Nc4ccc(N5CCN(C)CC5)cc4)n3)cnn2n1 [GW696155]
67

Dear colleague, I am looking for the recorded %Inh of the following compound: NS(=O)(=O)c1cccc(-c2ccc3ncc(N4CCOCC4)nc3c2)c1 [GSK1535721]
37

Dear colleague, I am looking for the recorded %Inh of the following compound: Cn1ccc2ncnc(Oc3ccc(NC(=O)Nc4ccncc4)c(Cl)c3)c21
20

Dear colleague, I am looking for the recorded %Inh of the following compound: NS(=O)(=O)c1cccc(-c2ccc3nccc(-c4cccc(S(N)(=O)=O)c4)c3c2)c1 [GW867253]
0

Dear colleague, I am looking for the recorded %Inh of the following compound: c1ccc(-c2n[nH]cc2-c2ccnc3ccccc23)nc1 [GW271431]
0

Dear colleague, I am looking for the recorded %Inh of the following compound: CSc1ccc(-c2cc3ncnc(SCC(=O)O)c3s2)cc1
2

Dear colleague, I am looking for the recorded %Inh of the following compound: O=C(Nc1cccc(-c2nn3ncccc3c2-c2ccnc(Nc3cccc(C(F)(F)F)c3)n2)c1)c1c(F)cccc1F [GSK299495]
0
